target: extracellular domain of human BLyS protein (hBLyS-ECD), His-tagged, Ala134-Leu285 (human, UniProt Q9Y275 134-285); test: cell-based or functional assay
Sequence (Q9Y275 134-285): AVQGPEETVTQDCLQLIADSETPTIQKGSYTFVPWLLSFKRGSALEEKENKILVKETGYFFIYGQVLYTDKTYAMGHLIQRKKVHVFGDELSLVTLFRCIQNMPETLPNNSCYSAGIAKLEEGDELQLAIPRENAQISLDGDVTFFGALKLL
assay.metric: OD450 nm (as headed), mouse B lymphocyte proliferation; antibody 0.8 nM
Provide a numeric answer; units are not to be included.

What does the data say about its OD450 nm (as headed), mouse B lymphocyte proliferation; antibody 0.8 nM? Entry: c8E7D9C7F5 (antibody, V domains shown, also called chimeric antibody c8E7D9C7F5) VH: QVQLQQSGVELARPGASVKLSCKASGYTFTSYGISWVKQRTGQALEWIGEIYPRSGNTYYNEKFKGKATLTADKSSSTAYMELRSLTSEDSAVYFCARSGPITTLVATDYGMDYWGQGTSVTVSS VL: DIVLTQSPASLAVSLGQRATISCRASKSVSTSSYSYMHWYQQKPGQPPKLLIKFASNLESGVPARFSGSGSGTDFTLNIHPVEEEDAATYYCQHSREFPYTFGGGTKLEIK
2070
